Measured values drawn from ChEMBL document CHEMBL3217528 for this set.

- system-name: Cannabinoid receptor 1 (Homo sapiens)
- Sequence (P21554 whole entry): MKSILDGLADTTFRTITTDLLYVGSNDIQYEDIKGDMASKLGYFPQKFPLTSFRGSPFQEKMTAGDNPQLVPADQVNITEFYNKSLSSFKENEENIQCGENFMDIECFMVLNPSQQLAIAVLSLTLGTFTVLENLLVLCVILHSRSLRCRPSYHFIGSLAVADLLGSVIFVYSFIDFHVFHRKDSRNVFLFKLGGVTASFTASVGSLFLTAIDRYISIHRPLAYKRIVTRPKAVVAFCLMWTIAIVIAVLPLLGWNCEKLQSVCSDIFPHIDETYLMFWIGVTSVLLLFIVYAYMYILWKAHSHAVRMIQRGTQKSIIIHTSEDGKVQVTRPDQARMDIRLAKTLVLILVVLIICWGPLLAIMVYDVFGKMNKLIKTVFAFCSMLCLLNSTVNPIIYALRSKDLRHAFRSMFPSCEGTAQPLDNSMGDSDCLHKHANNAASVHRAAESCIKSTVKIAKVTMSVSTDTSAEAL
- experiment-summary: Displacement of [3H]CP55,940 from human recombinant CB1 receptor expressed in CHO-K1 cells
Hi there, I'd appreciate the recorded Ki for every entry that follows.

Recorded results for 10 compounds are shown here.
{"item-smiles": "O=C1/C(=C/c2cccc(OCc3ccc(Cl)cc3Cl)c2)N=C2SCCCCN12", "Ki": "3.18 µM"}
{"item-smiles": "O=C1/C(=C/c2c(Cl)cccc2Cl)N=C2SCCCN12", "Ki": "> 10 µM"}
{"item-smiles": "O=C1N2CCSC2=NC1(c1ccccc1)c1ccccc1", "Ki": "21.1 µM"}
{"item-smiles": "O=C1/C(=C/c2cccc([N+](=O)[O-])c2)N=C2SCCCN12", "Ki": "> 10 µM"}
{"item-smiles": "O=C(Oc1cccc(/C=C2\\N=C3SCCCN3C2=O)c1)c1ccccc1", "Ki": "> 10 µM"}
{"item-smiles": "O=C1/C(=C/c2ccc(Cl)cc2)N=C2SCCCN12", "Ki": "> 10 µM"}
{"item-smiles": "O=C1N=C2SCCCCN2C1(c1ccccc1)c1ccccc1", "Ki": "> 10 µM"}
{"item-smiles": "COc1ccccc1/C=C1\\N=C2SCCCN2C1=O", "Ki": "> 10 µM"}
{"item-smiles": "COc1ccc(/C=C2\\N=C3SCCCN3C2=O)cc1", "Ki": "> 10 µM"}
{"item-smiles": "O=C1/C(=C/c2cccc(Oc3ccccc3)c2)N=C2SCCCN12", "Ki": "> 10 µM"}

# return Ki for each item in the list
1. O=C1/C(=C/c2cccc(OCc3ccccc3)c2)N=C2SCCCN12
2. O=C1/C(=C/c2cccc(OCc3ccccc3)c2)N=C2SCCCCN12

A)
["> 10 µM", "2.13 µM"]

###

- system-name: Cannabinoid receptor 2 (Homo sapiens)
- experiment-summary: Displacement of [3H]CP55,940 from human recombinant CB2 receptor expressed in HEK293 cells
test-readout: Ki

Solved cases below.
{"compound": "CCOC(=O)C1CN2C(=NC(=O)C2(c2ccccc2)c2ccccc2)S1 (stereo not given)", "test-readout": "Ki", "endpoint-value": "> 10 µM"}
{"compound": "O=C1N2CCCCSC2=NC1(c1ccccc1)c1ccccc1", "test-readout": "Ki", "endpoint-value": "> 10 µM"}
{"compound": "O=C1/C(=C/c2ccc([N+](=O)[O-])cc2)N=C2SCCCN12", "test-readout": "Ki", "endpoint-value": "> 10 µM"}
{"compound": "O=C1/C(=C/c2cccc(OCc3ccc(F)cc3)c2)N=C2SCCCCN12", "test-readout": "Ki", "endpoint-value": "1.56 µM"}

--- query ---
get_value(item= CCCCC/C=C\C/C=C\C/C=C\C/C=C\CCCC(=O)O[C@H](CO)COP(=O)(O)O[C@@H]1[C@@H](O)[C@H](O)[C@@H](O)[C@H](O)[C@@H]1O , readout=Ki) returns > 10 µM

###

- system-name: Cannabinoid receptor 2 (Homo sapiens, UniProt P34972)
- Sequence (P34972 whole entry): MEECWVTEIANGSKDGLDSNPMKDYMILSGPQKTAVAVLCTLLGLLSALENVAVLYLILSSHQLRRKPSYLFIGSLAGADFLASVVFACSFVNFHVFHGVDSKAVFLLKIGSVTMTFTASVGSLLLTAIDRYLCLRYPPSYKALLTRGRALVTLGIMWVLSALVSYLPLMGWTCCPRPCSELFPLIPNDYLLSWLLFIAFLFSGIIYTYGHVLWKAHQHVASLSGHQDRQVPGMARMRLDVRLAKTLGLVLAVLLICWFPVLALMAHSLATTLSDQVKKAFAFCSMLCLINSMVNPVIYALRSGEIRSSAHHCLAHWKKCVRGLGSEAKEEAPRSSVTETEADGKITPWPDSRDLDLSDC
- experiment-summary: Displacement of [3H]CP55,940 from human recombinant CB2 receptor expressed in HEK293 cells
Could you please report measured Ki for the items listed next?

Use the examples below as a reference point.
{"item-smiles": "O=C1/C(=C/c2cccc(Oc3ccccc3)c2)N=C2SCCCN12", "Ki": "> 10 µM"}
{"item-smiles": "O=C1/C(=C/c2cccc(OCc3ccccc3)c2)N=C2SCCCN12", "Ki": "1.11 µM"}
{"item-smiles": "O=C(Oc1cccc(/C=C2\\N=C3SCCCN3C2=O)c1)c1ccc(Cl)cc1", "Ki": "> 10 µM"}
{"item-smiles": "O=C1/C(=C/c2cccc(OCc3ccc(Cl)cc3Cl)c2)N=C2SCCCCN12", "Ki": "1.65 µM"}
{"item-smiles": "O=C1/C(=C/c2ccc(-c3ccccc3)cc2)N=C2SCCCCN12", "Ki": "5.43 µM"}
{"item-smiles": "O=C1/C(=C/c2ccc(Cl)cc2)N=C2SCCCN12", "Ki": "> 10 µM"}

State the recorded Ki for every item in the following list.
1. O=C1/C(=C/c2cccc(OCc3cccc(Cl)c3)c2)N=C2SCCCCN12
2. COc1cccc(/C=C2\N=C3SCCCN3C2=O)c1OC
3. O=C1N=C2SCCN2C1(c1ccccc1)c1ccccc1
4. O=C1N2CCCSC2=NC1(c1ccccc1)c1ccccc1
5. O=C(Oc1cccc(/C=C2\N=C3SCCCN3C2=O)c1)c1ccccc1

A)
1. > 10 µM
2. > 10 µM
3. > 10 µM
4. > 10 µM
5. ≥ 10 µM

For each entry beneath this line, provide reported Ki.
1. O=C1/C(=C/c2ccccc2F)N=C2SCCCN12
2. O=C1/C(=C/c2cccc(OCc3ccccc3Cl)c2)N=C2SCCCN12

A)
> 10 µM
> 10 µM

I have 2 molecules here; please give me Ki for each one.
1. O=C1/C(=C/c2cccc(Oc3ccccc3)c2)N=C2SCCCCN12
2. CCOC(=O)COc1cccc(/C=C2\N=C3SCCCCN3C2=O)c1

A)
["> 10 µM", "> 10 µM"]

Each molecule below has a reported value. Please supply its Ki.
1. COc1ccc(/C=C2\N=C3SCCCN3C2=O)cc1OC
2. O=C1/C(=C/c2cccc(OCc3ccc(Cl)cc3)c2)N=C2SCCCCN12
3. O=C1/C(=C/c2cccc(OCc3ccc(Cl)c(Cl)c3)c2)N=C2SCCCN12
4. O=C1/C(=C/c2cccc([N+](=O)[O-])c2)N=C2SCCCN12
5. O=C1/C(=C/c2ccccc2Cl)N=C2SCCCN12
6. O=C1N=C2SCCCN2/C1=C\C=C\c1ccccc1

A)
1. > 10 µM
2. 4.15 µM
3. > 10 µM
4. > 10 µM
5. > 10 µM
6. > 10 µM

Hey, can you go through the list below and give me Ki for every item?
1. COc1ccc(/C=C2\N=C3SCCCN3C2=O)cc1
2. O=C1/C(=C/c2cccc(OCc3ccc(Cl)cc3Cl)c2)N=C2SCCCN12

A)
1. > 10 µM
2. 0.95 µM
